Data credit: patent US20250340570A1

Item-by-item account of IC50
- Test system: ATXN3 transcripts containing exon 4
- test-details: ATXN3 quantitative splicing assay (qPCR, E4E5 transcripts containing exon 4)
- Format: cell-based
- conditions: Human neuroblastoma SK-N-MC cells, 24 h treatment, qPCR primers/probe E4E5

For orientation, consider the following solved cases.
input-smiles: COC[C@H](N)Cc1sc2c(NCc3cccs3)snc2c1Br
study-target: ATXN3 transcripts containing exon 4
reported-value: 0.101 to 0.5 µM
//
input-smiles: COC[C@H](N)Cc1sc2c(NCc3cccs3)snc2c1Cl
study-target: ATXN3 transcripts containing exon 4
reported-value: 5 to 10 µM
//
input-smiles: C[C@H](F)[C@H](N)Cc1sc2c(NCc3sccc3F)snc2c1Cl
study-target: ATXN3 transcripts containing exon 4
reported-value: 0.501 to 5 µM
//
input-smiles: C[C@H](N)Cc1sc2c(NCc3ccco3)snc2c1C(F)(F)F
study-target: ATXN3 transcripts containing exon 4
reported-value: 0.501 to 5 µM
//
input-smiles: C#C[C@H](N)Cc1sc2c(NCc3cccs3)snc2c1C
study-target: ATXN3 transcripts containing exon 4
reported-value: 0.501 to 5 µM

Req: Name the reported IC50 value associated with the compound N[C@H](Cc1sc2c(NCc3ccco3)snc2c1Br)CC(F)(F)F
Resp: 0.501 to 5 µM

Req: # IC50 lookup, item N[C@@H](CO)Cc1sc2c(NCc3cccs3)snc2c1Cl
Resp: 0.501 to 5 µM

Req: Return reported IC50; argument: Cc1c(C[C@@H](N)c2ccccc2)sc2c(NCc3cccs3)snc12
Resp: 10 to 40 µM

Req: Endpoint output: IC50 of C[C@@H](F)[C@H](N)Cc1sc2c(NCc3nccs3)snc2c1Br . Value?
Resp: 0.501 to 5 µM

Req: So what does the record say about IC50 for COC[C@H](N)Cc1sc2c(NCc3cccs3)snc2c1C ?
Resp: 0.501 to 5 µM

Req: What does the data say about its IC50? Entry: C[C@H](N)Cc1sc2c(NCc3cccs3)snc2c1O
Resp: 10 to 40 µM

Req: Can you share its IC50? I mean this compound: N[C@H](Cc1sc2c(NCc3ccco3)snc2c1Cl)CC(F)(F)F
Resp: 0.501 to 5 µM

Req: Any idea what its IC50 is? The compound is COC[C@H](N)Cc1sc2c(NCc3ccco3)snc2c1Cl
Resp: 0.501 to 5 µM

Req: # query: IC50 of entry COC[C@H](N)Cc1sc2c(NCc3ccco3)snc2c1Br
Resp: 0.101 to 0.5 µM

Req: Dear colleague, I am looking for the recorded IC50 of the following compound: Brc1csc2c(NCc3cccs3)snc12
Resp: 10 to 40 µM

Req: Any idea what IC50 was measured for C[C@H](N)Cc1sc2c(NCc3ccco3)snc2c1Cl ?
Resp: 0.101 to 0.5 µM
